- Tested on: NCI-H1734
- experiment-summary: relative viability (nuclei count vs DMSO), 5 days (fraction); higher = more cells survive
- experimental-setup: first compound 0.08 µM
relative viability less than 0.7 is true; relative viability greater than or equal to 0.7 is false.

[
  {
    "molecule": "O=c1[nH]c2ccccc2n1C1CCN(CCCC(c2ccc(F)cc2)c2ccc(F)cc2)CC1 [Pimozide] + N=C(N)NC(=N)NCCc1ccccc1 [Phenformin] (partner 250 µM)",
    "class-label": "true"
  },
  {
    "molecule": "Cc1cnc(-c2cnc(NCCNc3ccc(C#N)cn3)nc2-c2ccc(Cl)cc2Cl)[nH]1 + C[C@@H](Oc1cc(-c2cnn(C3CCNCC3)c2)cnc1N)c1c(Cl)ccc(F)c1Cl [Crizotinib] (partner 1 µM)",
    "class-label": "true"
  },
  {
    "molecule": "O=c1[nH]c2ccccc2n1C1CCN(CCCC(c2ccc(F)cc2)c2ccc(F)cc2)CC1 [Pimozide] + CC(C)C[C@H](NC(=O)[C@H](Cc1ccccc1)NC(=O)c1cnccn1)B(O)O [Bortezomib] (partner 0.002 µM)",
    "class-label": "false"
  },
  {
    "molecule": "O=c1[nH]c2ccccc2n1C1CCN(CCCC(c2ccc(F)cc2)c2ccc(F)cc2)CC1 [Pimozide] + CC1(C)CCC(c2ccc(Cl)cc2)=C(CN2CCN(c3ccc(C(=O)NS(=O)(=O)c4ccc(N[C@H](CCN5CCOCC5)CSc5ccccc5)c(S(=O)(=O)C(F)(F)F)c4)cc3)CC2)C1 [Navitoclax] (partner 0.5 µM)",
    "class-label": "false"
  },
  {
    "molecule": "O=c1[nH]c2ccccc2n1C1CCN(CCCC(c2ccc(F)cc2)c2ccc(F)cc2)CC1 [Pimozide] + Cc1nc(Nc2ncc(C(=O)Nc3c(C)cccc3Cl)s2)cc(N2CCN(CCO)CC2)n1 [Dasatinib] (partner 0.075 µM)",
    "class-label": "true"
  },
  {
    "molecule": "Cc1cnc(-c2cnc(NCCNc3ccc(C#N)cn3)nc2-c2ccc(Cl)cc2Cl)[nH]1 + C[C@]1(O)C[C@@H](c2nc(-c3ccc4ccc(-c5ccccc5)nc4c3)c3c(N)nccn32)C1 [Linsitinib] (partner 1 µM)",
    "class-label": "false"
  },
  {
    "molecule": "O=c1[nH]c2ccccc2n1C1CCN(CCCC(c2ccc(F)cc2)c2ccc(F)cc2)CC1 [Pimozide] + Cc1nc(NC(=O)N2CCC[C@H]2C(N)=O)sc1-c1ccnc(C(C)(C)C(F)(F)F)c1 [Alpelisib] (partner 2 µM)",
    "class-label": "true"
  },
  {
    "molecule": "O=c1[nH]c2ccccc2n1C1CCN(CCCC(c2ccc(F)cc2)c2ccc(F)cc2)CC1 [Pimozide] + O=C(CCCCCCC(=O)Nc1ccccc1)NO [Vorinostat] (partner 1 µM)",
    "class-label": "false"
  },
  {
    "molecule": "O=c1[nH]c2ccccc2n1C1CCN(CCCC(c2ccc(F)cc2)c2ccc(F)cc2)CC1 [Pimozide] + C[C@@H](Oc1cc(-c2cnn(C3CCNCC3)c2)cnc1N)c1c(Cl)ccc(F)c1Cl [Crizotinib] (partner 1 µM)",
    "class-label": "true"
  },
  {
    "molecule": "O=c1[nH]c2ccccc2n1C1CCN(CCCC(c2ccc(F)cc2)c2ccc(F)cc2)CC1 [Pimozide] + CS(=O)(=O)N1CCN(Cc2cc3nc(-c4cccc5[nH]ncc45)nc(N4CCOCC4)c3s2)CC1 [Pictilisib] (partner 1 µM)",
    "class-label": "true"
  }
]
